The measured values listed here are drawn from ChEMBL document CHEMBL1136280.

Tested on: Mus musculus
Assay: Mean survival time calculated for the mice which died during 28 day observation period at the dose of 96 mg/kg/day orally
Assay type: functional
Settings: route oral

# Molecule, Relation qualifier, MST
data = [
    ("C=C(CCC(O)c1ccc(-c2ccccc2)cc1)C1COC2(CCCCC2)OO1 (stereo not drawn)", "=", 13.8),
    ("C=C(CCC(O)c1cccc2ccccc12)C1COC2(OO1)C1CC3CC(C1)CC2C3 (stereo not drawn)", "=", 17),
    ("C=C(CCC(O)c1ccc(Cl)cc1)C1COC2(CCCCC2)OO1 (stereo not drawn)", "=", 10.2),
    ("CCN(CC)CCCC(C)Nc1ccnc2cc(Cl)ccc12 (stereo not drawn)", "=", 20),
    ("C=C(CCC(O)c1ccccc1)C1COC2(CCCCC2)OO1 (stereo not drawn)", "=", 11.6),
    ("C=C(CCC(O)c1ccc(Cl)cc1)C1COC2(CCCC2)OO1 (stereo not drawn)", "=", 7.4),
    ("C=C(CCC(O)c1ccccc1)C1COC2(CCCC2)OO1 (stereo not drawn)", "=", 8.2),
    ("C=C(CCC(O)c1ccc(Cl)cc1)C1COC2(OO1)C1CC3CC(C1)CC2C3 (stereo not drawn)", ">", 28),
    ("C=C(CCC(O)c1cccc2ccccc12)C1COC2(CCCCC2)OO1 (stereo not drawn)", "=", 13),
    ("C=C(CCC(O)c1cccc2ccccc12)C1COC2(CCCC2)OO1 (stereo not drawn)", "=", 10.4),
    ("C=C(CCC(O)c1ccc(-c2ccccc2)cc1)C1COC2(CCCC2)OO1 (stereo not drawn)", "=", 16),
    ("C=C(CCC(O)c1ccccc1)C1COC2(OO1)C1CC3CC(C1)CC2C3 (stereo not drawn)", "=", 16.57),
    ("C=C(CCC(O)c1ccc(-c2ccccc2)cc1)C1COC2(OO1)C1CC3CC(C1)CC2C3 (stereo not drawn)", "=", 17.33),
]
